target: Human CD73 (Homo sapiens, UniProt P21589); construct: purchased R&D Systems; host or cells: CHO cells; experiment: CD73 Enzyme Assay (EnzChek PNP/MESG kinetic readout of AMP hydrolysis); type: biochemical; conditions: 0.25 nM hCD73, 25 μM AMP; read-out: CD73 Enzyme Assay IC50
pIC50: −log10 of the molar value.
measured quantity: pIC50

N#Cc1nc2c(ccn2[C@@H]2O[C@H](CS(=O)(=O)CP(=O)(O)O)[C@@H](O)[C@H]2O)c(NC2CC(F)(F)C2)c1Cl; > 8.00
N#Cc1nc2c(ccn2[C@@H]2O[C@H](COCP(=O)(O)O)[C@@H](O)[C@H]2O)c(N2C[C@@H](F)[C@@H](F)C2)c1Cl; > 8.00

Could you now look at the following molecule, please?
Memo: N#Cc1c(Cl)nc2c(ccn2[C@@H]2O[C@H](COP(=O)(O)CP(=O)(O)O)[C@@H](O)[C@H]2O)c1NC1CC(F)(F)C1 , reported pIC50: > 8.00

###

Measured IC50, listed per entry.
Target: Human CD73 (Homo sapiens, UniProt P21589)
Construct: purchased R&D Systems; host or cells: CHO cells
Assay: CD73 Enzyme Assay (EnzChek PNP/MESG kinetic readout of AMP hydrolysis)
Type: biochemical
Conditions: 0.25 nM hCD73, 25 μM AMP; read-out: CD73 Enzyme Assay IC50
Description: A compound of the present disclosure (5 μL) was transferred to a 384-well assay plate. The compound was added in a 15 point, 3-fold serial dilution (300 μM to 0.0002 μM) in DMSO. […] The plate was immediately placed in a plate reader (Synergy 2 or Spark 10), and a reading was taken every minute for 10 to 20 minutes in a kinetic run at 360 nm. […] Low signal controls containing 100 μM adenosine 5′-(α,β-methylene) diphosphate and high signal controls containing no compound were measured for each plate. […]

Worked examples, 5 compounds total:
C[C@@H](Nc1c(C#N)c(Cl)nc2c1cnn2[C@@H]1O[C@H](COP(=O)(O)CP(=O)(O)O)[C@@H](O)[C@H]1O)c1ccc(F)cn1 [Compound 258]; < 10 nM
N#Cc1c(Cl)nc2c(ccn2[C@@H]2O[C@H](COP(=O)(O)CP(=O)(O)O)[C@@H](O)[C@H]2O)c1NC1CC2CC2C1 (stereo partly drawn) [Compound 28]; < 10 nM
C[C@@H](Nc1c(C#N)c(Cl)nc2c1ccn2[C@@H]1O[C@H](COP(=O)(O)CP(=O)(O)O)[C@@H](O)[C@@H]1F)c1ccc(F)cc1 [Compound 229]; < 10 nM
N#Cc1c(Cl)nc2c(ncn2[C@@H]2O[C@H](COCP(=O)(O)O)[C@@H](O)[C@H]2O)c1N1CC(F)(F)C1 [Compound 82]; < 10 nM
C[C@H](Nc1c(C#N)c(Cl)nc2c1cnn2[C@@H]1O[C@H](CS(=O)(=O)CP(=O)(O)O)[C@@H](O)[C@H]1O)c1cccc(F)c1 [Compound 180]; < 10 nM

The recorded IC50 for entry C[C@H](Nc1c(C#N)c(Cl)nc2c1cnn2[C@@H]1O[C@H](CS(=O)(=O)CP(=O)(O)O)[C@@H](O)[C@H]1O)c1ccc(C#N)cc1 [Compound 185] equals < 10 nM

###

Biological target: Human CD73 (Homo sapiens, UniProt P21589)
Construct: purchased R&D Systems; host or cells: CHO cells
Sequence (P21589 27-549): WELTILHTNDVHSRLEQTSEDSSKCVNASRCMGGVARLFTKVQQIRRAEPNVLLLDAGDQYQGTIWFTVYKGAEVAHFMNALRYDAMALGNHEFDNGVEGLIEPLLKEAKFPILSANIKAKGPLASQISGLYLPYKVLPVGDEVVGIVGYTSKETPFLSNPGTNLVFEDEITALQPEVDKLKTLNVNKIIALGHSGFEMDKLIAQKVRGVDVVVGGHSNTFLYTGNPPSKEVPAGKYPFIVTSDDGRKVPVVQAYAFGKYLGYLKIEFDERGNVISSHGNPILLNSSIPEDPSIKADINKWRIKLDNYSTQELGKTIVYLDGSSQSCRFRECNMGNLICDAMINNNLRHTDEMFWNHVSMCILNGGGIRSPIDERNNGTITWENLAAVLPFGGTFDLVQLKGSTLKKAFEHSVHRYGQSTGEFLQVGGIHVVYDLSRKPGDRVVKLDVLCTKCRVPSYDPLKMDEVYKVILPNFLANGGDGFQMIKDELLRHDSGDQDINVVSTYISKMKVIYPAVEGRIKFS
Test: CD73 Enzyme Assay (EnzChek PNP/MESG kinetic readout of AMP hydrolysis)
Format: biochemical
Settings: 0.25 nM hCD73, 25 μM AMP; read-out: CD73 Enzyme Assay IC50
pIC50: −log10 of the molar value.
measured quantity: pIC50

N#Cc1c(Cl)nc2c(ccn2[C@@H]2O[C@H](CS(=O)(=O)CP(=O)(O)O)[C@@H](O)[C@@H]2F)c1N1CCC(F)(F)C1; > 8.00
N#Cc1c(Cl)nc2c(cnn2[C@@H]2O[C@H](CS(=O)(=O)CP(=O)(O)O)[C@@H](O)[C@H]2O)c1N[C@H]1C[C@H](F)C1; > 8.00
N#Cc1c(Cl)nc2c(cnn2[C@@H]2O[C@H](COCP(=O)(O)O)[C@@H](O)[C@H]2O)c1N1CC2CC2C1 (stereo partly shown); > 8.00
N#Cc1cnc2c(ccn2[C@@H]2O[C@H](COP(=O)(O)CP(=O)(O)O)[C@@H](O)[C@H]2O)c1NC1CCCC1; > 8.00
N#Cc1c(Cl)nc2c(ccn2[C@@H]2O[C@H](CS(=O)(=O)CP(=O)(O)O)[C@@H](O)[C@H]2O)c1NC1CCC1; > 8.00

// sample C[C@H](Nc1c(C#N)c(Cl)nc2c1cnn2[C@@H]1O[C@H](CS(=O)(=O)CP(=O)(O)O)[C@@H](O)[C@H]1O)c1cccc(C#N)c1 , its pIC50 was > 8.00

# molecule C[C@H](Nc1c(C#N)c(Cl)nc2c1ccn2[C@@H]1O[C@H](CS(=O)(=O)CP(=O)(O)O)[C@@H](O)[C@H]1O)c1ccc(C#N)cc1 ; its pIC50 = > 8.00

The molecule CNC(=O)c1c(Cl)nc2c(ccn2C2O[C@H](COCP(=O)(O)O)[C@@H](O)[C@H]2O)c1NC1CCCC1 (stereo partly shown) showed pIC50 equal to 7.00 to 8.00

Just so you know, measured pIC50 for N#Cc1c(Cl)nc2c(ncn2[C@@H]2O[C@H](CS(=O)(=O)CP(=O)(O)O)[C@@H](O)[C@H]2O)c1NC1CCC(F)(F)CC1 came out at > 8.00

For this molecule ( N#Cc1c(Cl)nc2c(ccn2[C@@H]2O[C@H](COP(=O)(O)CP(=O)(O)O)[C@@H](O)[C@@H]2F)c1N1CCC(F)(F)C1 ), measured pIC50 is > 8.00

###

Target: Human CD73 (Homo sapiens, UniProt P21589)
Construct: purchased R&D Systems; host or cells: CHO cells
Sequence (P21589 27-549): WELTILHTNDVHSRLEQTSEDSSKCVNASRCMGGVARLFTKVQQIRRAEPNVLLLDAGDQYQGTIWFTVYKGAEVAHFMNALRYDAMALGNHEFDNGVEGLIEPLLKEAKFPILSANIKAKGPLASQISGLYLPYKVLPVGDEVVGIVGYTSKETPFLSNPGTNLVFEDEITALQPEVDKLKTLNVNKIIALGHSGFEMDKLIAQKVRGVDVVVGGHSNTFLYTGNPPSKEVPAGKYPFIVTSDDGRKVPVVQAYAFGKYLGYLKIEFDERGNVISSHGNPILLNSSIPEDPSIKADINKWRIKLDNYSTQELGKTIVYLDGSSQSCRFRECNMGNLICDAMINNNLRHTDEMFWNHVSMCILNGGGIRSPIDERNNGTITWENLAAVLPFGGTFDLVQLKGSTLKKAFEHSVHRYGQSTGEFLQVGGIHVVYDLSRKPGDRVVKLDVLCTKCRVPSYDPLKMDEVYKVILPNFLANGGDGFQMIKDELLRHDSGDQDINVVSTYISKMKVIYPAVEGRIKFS
Assay: CD73 Enzyme Assay (EnzChek PNP/MESG kinetic readout of AMP hydrolysis)
Assay type: biochemical
Details: low signal control compound; 0.25 nM hCD73, 25 μM AMP; read-out: IC50
measured quantity: IC50 (nM)
Only the number, expressed in nM, is required.

get_value(item= Nc1ncnc2c1ncn2[C@@H]1O[C@H](COP(=O)(O)CP(=O)(O)O)[C@@H](O)[C@H]1O [adenosine 5′-(α,β-methylene) diphosphate, reference compound] , readout=IC50) returns 50

###

Quick list: IC50 per entry.
biological target: Human CD73 (Homo sapiens, UniProt P21589); construct: purchased R&D Systems; host or cells: CHO cells; assay: CD73 Enzyme Assay (EnzChek PNP/MESG kinetic readout of AMP hydrolysis); format: biochemical; conditions: 0.25 nM hCD73, 25 μM AMP; read-out: CD73 Enzyme Assay IC50

Examples with their reported IC50 follow.
N#Cc1nc2c(ccn2[C@@H]2O[C@H](CS(=O)(=O)CP(=O)(O)O)[C@@H](O)[C@H]2O)c(NC2CC(F)(F)C2)c1C#N; < 10 nM
N#Cc1c(Cl)nc2c(ncn2[C@@H]2O[C@H](COCP(=O)(O)O)[C@@H](O)[C@H]2O)c1N1CC2CCCC2C1 (stereo partly drawn); < 10 nM

Consider the additional molecule presented here.
Quick note, IC50 for N#Cc1c(Cl)nc2c(ccn2[C@@H]2O[C@H](COCP(=O)(O)O)[C@@H](O)[C@H]2O)c1NC1CCC1 landed at < 10 nM
